- assayedSystem: T1, Human PD-L1 expressed on cells (human, UniProt Q9NZQ7 19-290)
- T1 construct: also called cell-surface human PD-L1; hPD-L1
- T1 sequence (Q9NZQ7 19-290 limits assumed): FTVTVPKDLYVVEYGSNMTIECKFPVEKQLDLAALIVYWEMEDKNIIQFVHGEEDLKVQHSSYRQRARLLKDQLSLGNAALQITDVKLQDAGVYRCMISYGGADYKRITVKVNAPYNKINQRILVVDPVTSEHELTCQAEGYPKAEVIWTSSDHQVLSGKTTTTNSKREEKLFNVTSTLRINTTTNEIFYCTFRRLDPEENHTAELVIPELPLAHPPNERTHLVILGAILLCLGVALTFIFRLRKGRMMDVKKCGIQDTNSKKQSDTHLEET
- measurementNotes: flow cytometry, HEK293 cells overexpressing the target, anti-human Fc 488
endpointLabel: Kd (nM)

- binder: "Fcab FS17-33-288 (designed binder) TCPPCPAPELLGGPSVFLFPPKPKDTLMISRTPEVTCVVVDVSHEDPEVKFNWYVDGVEVHNAKTKPREEQYNSTYRVVSVLTVLHQDWLNGKEYKCKVSNKALPAPIEKTISKAKGQPREPQVYTLPPSRDESGYWVSLTCLVKGFYPSDIVVEWESNGEPQYWAKTTPPVLDSDGSFFLYSKLTVSNWRWQIDDFSCSVMHEALHNHYTQKSLSLSPGK"
  endpointLabel: "Kd"
  reported: 2.5
- binder: "Fcab FS17-33-296 (designed binder) TCPPCPAPELLGGPSVFLFPPKPKDTLMISRTPEVTCVVVDVSHEDPEVKFNWYVDGVEVHNAKTKPREEQYNSTYRVVSVLTVLHQDWLNGKEYKCKVSNKALPAPIEKTISKAKGQPREPQVYTLPPSRDESGYWVSLTCLVKGFYPSDIVVEWESNGEPQYWAKTTPPVLDSDGSFFLYSKLTVSNWRWQVDDFSCSVMHEALHNHYTQKSLSLSPGK"
  endpointLabel: "Kd"
  reported: 1
- binder: "Fcab FS17-33-116 (designed binder) TCPPCPAPELLGGPSVFLFPPKPKDTLMISRTPEVTCVVVDVSHEDPEVKFNWYVDGVEVHNAKTKPREEQYNSTYRVVSVLTVLHQDWLNGKEYKCKVSNKALPAPIEKTISKAKGQPREPQVYTLPPSRDESGYWVSLTCLVKGFYPSDIVVEWESNGEPQYWAKTTPPVLDSDGSFFLYSKLTVSNWRWQMDDFSCSVMHEALHNHYTQKSLSLSPGK"
  endpointLabel: "Kd"
  reported: 1.68
- binder: "Fcab FS17-33-289 (designed binder) TCPPCPAPELLGGPSVFLFPPKPKDTLMISRTPEVTCVVVDVSHEDPEVKFNWYVDGVEVHNAKTKPREEQYNSTYRVVSVLTVLHQDWLNGKEYKCKVSNKALPAPIEKTISKAKGQPREPQVYTLPPSRDESGYWVSLTCLVKGFYPSDIVVEWESNGEPQYWAKTTPPVLDSDGSFFLYSKLTVSNWRWQLDDFSCSVMHEALHNHYTQKSLSLSPGK"
  endpointLabel: "Kd"
  reported: 1
- binder: "Fcab FS17-33-334 (designed binder) TCPPCPAPELLGGPSVFLFPPKPKDTLMISRTPEVTCVVVDVSHEDPEVKFNWYVDGVEVHNAKTKPREEQYNSTYRVVSVLTVLHQDWLNGKEYKCKVSNKALPAPIEKTISKAKGQPREPQVYTLPPSRDESGYWVSLTCLVKGFYPSDIAVEWESNGEPQYWAKTTPPVLDSDGSFFLYSKLTVSNWRWQLDDFSCSVMHEALHNHYTQKSLSLSPGK"
  endpointLabel: "Kd"
  reported: 2.06

Hello, the source for this data is patent US20230406935A1, in case you need it.
